biological target: Gastrin-releasing peptide receptor (Rattus norvegicus) (UniProt P52500); assay: Tested for the inhibition of Bombesin-stimulated amylase release at 50 nM concentration in rat pranceatic acini; format: functional
Sequence (P52500 whole entry): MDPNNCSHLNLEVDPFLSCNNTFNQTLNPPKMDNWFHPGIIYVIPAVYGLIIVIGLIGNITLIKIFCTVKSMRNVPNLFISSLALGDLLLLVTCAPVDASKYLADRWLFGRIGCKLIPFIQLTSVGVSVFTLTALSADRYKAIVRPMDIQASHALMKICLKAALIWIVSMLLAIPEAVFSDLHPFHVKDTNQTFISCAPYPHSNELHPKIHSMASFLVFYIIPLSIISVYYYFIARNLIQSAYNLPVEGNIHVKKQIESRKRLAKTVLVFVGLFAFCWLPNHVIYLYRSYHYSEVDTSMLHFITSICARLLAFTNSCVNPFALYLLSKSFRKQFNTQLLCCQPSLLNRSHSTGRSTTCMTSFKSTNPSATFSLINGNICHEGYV
Where a SMILES comes first, the peptide text is derived from it. The star is where a group is joined. X1 = CSCC[C@H](NC[C@H](CC(C)C)N*)C(N)=O
PARAMETER_MEASURED: Release (%)

Before answering, review these 2 worked examples.
CSCC[C@H](NC[C@H](CC(C)C)NC(=O)[C@H](Cc1c[nH]cn1)NC(=O)CNC(=O)[C@@H](NC(=O)[C@H](C)NC(=O)[C@H](Cc1c[nH]c2ccccc12)NC(=O)[C@H](CC(N)=O)NC(=O)CN)C(C)C)C(N)=O    7.6
CSCC[C@H](NC[C@H](CC(C)C)NC(=O)[C@H](Cc1c[nH]cn1)NC(=O)CNC(=O)[C@@H](NC(=O)[C@H](C)NC(=O)[C@@H](N)Cc1c[nH]c2ccccc12)C(C)C)C(N)=O (H-WAVGH-X1)    5.4

I = CN[C@H](Cc1ccccc1)C(=O)N[C@@H](Cc1c[nH]c2ccccc12)C(=O)N[C@@H](C)C(=O)N[C@H](C(=O)NCC(=O)N[C@@H](Cc1c[nH]cn1)C(=O)N[C@H](CN[C@@H](CCSC)C(N)=O)CC(C)C)C(C)C
II = CSCC[C@H](NC[C@H](CC(C)C)NC(=O)[C@H](Cc1c[nH]cn1)NC(=O)CNC(=O)[C@@H](NC(=O)[C@H](C)NC(=O)[C@H](Cc1c[nH]c2ccccc12)NC(C)=O)C(C)C)C(N)=O (Ac-WAVGH-X1)
Q: Please tell me which of the two, I or II , has the higher reported Release value. Answer format: the label of the selected item.
A: I
(I: 7.2%, II: 4.7%)
